# assayedSystem: ΔF508-CFTR (Homo sapiens, UniProt P13569, DEL508-508)
# Sequence (P13569 with tags, fused parts or gaps DEL508-508): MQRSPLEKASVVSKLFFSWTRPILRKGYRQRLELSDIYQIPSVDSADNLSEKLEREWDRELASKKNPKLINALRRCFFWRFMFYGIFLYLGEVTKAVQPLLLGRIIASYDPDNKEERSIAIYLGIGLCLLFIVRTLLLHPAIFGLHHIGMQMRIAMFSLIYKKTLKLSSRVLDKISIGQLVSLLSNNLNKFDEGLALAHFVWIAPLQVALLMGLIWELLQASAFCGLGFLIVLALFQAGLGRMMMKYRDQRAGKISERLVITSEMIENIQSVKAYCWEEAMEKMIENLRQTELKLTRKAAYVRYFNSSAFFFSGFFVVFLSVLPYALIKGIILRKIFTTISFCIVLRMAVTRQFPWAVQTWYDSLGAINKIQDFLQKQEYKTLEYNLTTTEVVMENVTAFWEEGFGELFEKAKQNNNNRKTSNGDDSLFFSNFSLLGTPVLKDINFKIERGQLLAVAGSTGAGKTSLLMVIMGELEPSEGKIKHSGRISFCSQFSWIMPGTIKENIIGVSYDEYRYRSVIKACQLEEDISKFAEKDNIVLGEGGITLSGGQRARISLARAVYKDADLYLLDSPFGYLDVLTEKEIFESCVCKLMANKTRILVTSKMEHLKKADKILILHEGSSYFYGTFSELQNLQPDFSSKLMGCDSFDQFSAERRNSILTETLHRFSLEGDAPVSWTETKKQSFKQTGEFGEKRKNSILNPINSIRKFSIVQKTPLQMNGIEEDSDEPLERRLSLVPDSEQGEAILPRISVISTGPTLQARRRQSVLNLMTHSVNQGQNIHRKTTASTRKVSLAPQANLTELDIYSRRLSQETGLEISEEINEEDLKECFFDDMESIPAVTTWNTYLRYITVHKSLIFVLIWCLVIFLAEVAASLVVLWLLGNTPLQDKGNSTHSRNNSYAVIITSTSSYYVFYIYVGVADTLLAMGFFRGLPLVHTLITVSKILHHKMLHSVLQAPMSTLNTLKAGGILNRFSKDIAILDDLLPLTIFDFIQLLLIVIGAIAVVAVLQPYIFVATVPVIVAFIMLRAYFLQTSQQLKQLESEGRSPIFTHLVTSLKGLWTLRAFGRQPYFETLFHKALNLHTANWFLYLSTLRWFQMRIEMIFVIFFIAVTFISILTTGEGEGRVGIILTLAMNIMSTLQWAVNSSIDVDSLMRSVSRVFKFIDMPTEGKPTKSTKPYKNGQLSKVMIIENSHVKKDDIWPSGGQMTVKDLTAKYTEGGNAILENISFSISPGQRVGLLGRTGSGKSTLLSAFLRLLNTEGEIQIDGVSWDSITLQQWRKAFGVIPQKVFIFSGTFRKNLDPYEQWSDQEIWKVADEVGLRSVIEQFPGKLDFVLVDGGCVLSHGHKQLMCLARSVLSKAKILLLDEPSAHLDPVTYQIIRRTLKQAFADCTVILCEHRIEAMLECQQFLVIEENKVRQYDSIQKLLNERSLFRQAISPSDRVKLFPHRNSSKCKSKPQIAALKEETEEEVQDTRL
# method: Membrane potential optical assay for potentiators of ΔF508-CFTR (FLIPR III, voltage sensing dyes)
# conditionParameters: temperature-corrected ΔF508 CFTR NIH 3T3 cells, forskolin activation
pEC50: −log10 of the molar value.
assayReadout: pEC50

compound: CC1CCN(Cc2cc(C3CCCC3)c(O)cc2NC(=O)C2CNc3cc(OC(F)(F)F)ccc3O2)CC1 (stereo not shown) [Compound 117]
reportedResult: > 5.30
--
compound: CC1CCN(Cc2cc(C3CCCC3)c(O)cc2NC(=O)C2CNc3ccccc3O2)CC1 (stereo not shown) [Compound 46]
reportedResult: > 5.30
--
compound: Cc1ccc(NC(=O)C2CNc3cc(OC(F)(F)F)ccc3O2)c(C#CCN(C)C)c1 (stereo not shown) [Compound 26]
reportedResult: > 5.30
--
compound: Cc1ccc(NC(=O)C2CNc3cc(OC(F)(F)F)ccc3O2)c(C#CCN2CCC(O)CC2)c1 (stereo not shown) [Compound 64]
reportedResult: > 5.30
--
compound: O=C(O)CCc1cc(C2CCCC2)c(O)cc1NC(=O)C1CNc2cc(OC(F)(F)F)ccc2O1 (stereo not shown) [Compound 16]
reportedResult: > 5.30
--
compound: Cc1ccc(NC(=O)C2CNc3cc(OC(F)(F)F)ccc3O2)c(C#CCN2CCNC(=O)C2)c1 (stereo not shown) [Compound 63]
reportedResult: > 5.30
--
compound: CS(=O)(=O)c1cc(C2CCCC2)c(O)cc1NC(=O)C1CNc2cc(OC(F)(F)F)ccc2O1 (stereo not shown) [Compound 105]
reportedResult: 4.70 to 5.30
--
compound: Cc1cc(C2CCCC2)c(O)cc1NC(=O)C1CNc2cc(S(C)(=O)=O)ccc2O1 (stereo not shown) [Compound 72]
reportedResult: > 5.30
--
compound: CCc1cc(F)c(NC(=O)C2CNc3ccc(F)cc3O2)cc1O (stereo not shown) [Compound 20]
reportedResult: > 5.30
--
compound: CC(C)(C)c1cc(C(C)(C)C)c(NC(=O)C2CNc3ccccc3O2)cc1O (stereo not shown) [Compound 90]
reportedResult: > 5.30
--
compound: CN(C)CC#Cc1cc(F)ccc1NC(=O)C1CNc2cc(C#N)ccc2O1 (stereo not shown) [Compound 114]
reportedResult: 4.70 to 5.30
--
compound: O=C(Nc1cc(O)cc(C(F)(F)F)c1)C1CNc2ccccc2O1 (stereo not shown) [Compound 57]
reportedResult: > 5.30
--
compound: Cc1cnc(NC(=O)C2CNc3cc(OC(F)(F)F)ccc3O2)c(C#CCN(C)C)c1 (stereo not shown) [Compound 41]
reportedResult: > 5.30
--
compound: COc1ccc2c(c1)NCC(C(=O)Nc1ccc(C(C)(C)C)c(O)c1)O2 (stereo not shown) [Compound 14]
reportedResult: 4.70 to 5.30
--
compound: CCN1CCN(c2cc(C3CCCC3)c(O)cc2NC(=O)C2CNc3cc(C#N)ccc3O2)CC1 (stereo not shown) [Compound 10]
reportedResult: 4.70 to 5.30
--
compound: O=C(Nc1cc(O)c(C2CCCC2)cc1C(F)(F)F)[C@@H]1CNc2cc(F)ccc2O1 [Compound 76]
reportedResult: > 5.30

---

# assayedSystem: ΔF508-CFTR (Homo sapiens, UniProt P13569, DEL508-508)
# Construct: expressed in transfected cells
# method: Membrane potential optical assay for potentiators of ΔF508-CFTR (FLIPR III, voltage sensing dyes)
# Assay type: cell-based
# conditionParameters: NIH3T3; 100% efficacy is the maximum response obtained with 4-methyl-2-(5-phenyl-1H-pyrazol-3-yl)phenol; ΔF508 CFTR NIH 3T3 cells
assayReadout: Emax

molecule: O=C(Nc1cc(O)c(C2CCCC2)cc1CN1CCCCC1)C1CNc2ccccc2O1 (stereo not drawn)
reportedResult: 25 to 100%
//
molecule: CC1(c2cc(F)c(NC(=O)[C@@H]3CNc4ccccc4O3)cc2O)CCCCC1
reportedResult: 25 to 100%
//
molecule: CC(C)(C)c1ccc(NC(=O)C2CNc3cccc(F)c3O2)cc1O (stereo not drawn)
reportedResult: 25 to 100%
